src = patent US8071768B2

# testTarget: TrkB (Homo sapiens)
# Sequence (Q16620 32-822): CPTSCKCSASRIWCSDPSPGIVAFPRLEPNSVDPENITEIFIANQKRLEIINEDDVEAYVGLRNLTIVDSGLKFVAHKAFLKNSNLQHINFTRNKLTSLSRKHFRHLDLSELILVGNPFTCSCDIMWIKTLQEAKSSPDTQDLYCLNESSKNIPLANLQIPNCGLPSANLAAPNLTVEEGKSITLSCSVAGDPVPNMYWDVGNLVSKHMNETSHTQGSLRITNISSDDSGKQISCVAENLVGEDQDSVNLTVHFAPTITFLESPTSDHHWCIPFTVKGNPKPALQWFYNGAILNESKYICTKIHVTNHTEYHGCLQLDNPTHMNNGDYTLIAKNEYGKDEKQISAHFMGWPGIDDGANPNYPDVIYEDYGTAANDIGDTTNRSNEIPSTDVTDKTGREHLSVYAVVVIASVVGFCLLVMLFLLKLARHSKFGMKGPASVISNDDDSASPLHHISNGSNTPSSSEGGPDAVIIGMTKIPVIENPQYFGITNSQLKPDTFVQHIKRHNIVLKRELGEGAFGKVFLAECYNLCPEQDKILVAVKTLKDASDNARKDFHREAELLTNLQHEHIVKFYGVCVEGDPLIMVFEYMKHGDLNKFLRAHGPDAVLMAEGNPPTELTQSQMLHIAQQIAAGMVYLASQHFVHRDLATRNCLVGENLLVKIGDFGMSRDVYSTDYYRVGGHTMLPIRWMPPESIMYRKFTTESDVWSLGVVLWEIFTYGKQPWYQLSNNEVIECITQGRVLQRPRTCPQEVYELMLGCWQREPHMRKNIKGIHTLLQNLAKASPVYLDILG
pIC50: −log10 of the molar value.
Classify by measured pIC50: rule met if it is equal to or exceeds 5, rule not met if it is smaller.

Ask | Check the entry CN(C)CC(=O)N1CCN(c2ccc3c(C4CCN(C(=O)Nc5ccc(N6CCOCC6)cc5)CC4)ncnc3c2)CC1 : does pIC50 equal or exceed 5?
Reply | rule not met

Ask | Decide: pIC50 of O=C1CCCN1CCOc1ccc2c(C3CCN(C(=O)Nc4ccc(N5CCOCC5)cc4)CC3)ncnc2c1 >= 5?
Reply | rule not met

Ask | Confirm if pIC50 reported for the compound COc1cc2ncnc(C3CCN(C(=O)Nc4ccc(N5CCCCCC5)cc4)CC3)c2cc1OC is 5 or above.
Reply | rule met

Ask | Say whether COc1cc2ncnc(C3CCN(C(=O)Nc4ccc(N5CCCCC5)c(Cl)c4)CC3)c2cc1OC shows pIC50 of 5 or more.
Reply | rule met

Ask | Identify whether the reported pIC50 of the following compound is 5 or greater: CC(=O)N1CCC[C@H]1COc1ccc2c(C3CCN(C(=O)Nc4ccc(N5CCCC5)cc4)CC3)ncnc2c1
Reply | rule not met

Ask | Tell me whether pIC50 is at least 5 here: O=C(Nc1ccc(N2CCOCC2)cc1)N1CCC(c2ncnc3cc(OCCN4CCOC4=O)ccc23)CC1
Reply | rule not met

Ask | Quick check, pIC50 >= 5? O=C(Nc1ccc(N2CCOCC2)cc1)N1CCC(c2ncnc3cc(N4CCNCC4)ccc23)CC1
Reply | rule not met

Ask | Determine whether measured pIC50 meets or exceeds 5 for O=C(Nc1ccc(N2CCOCC2)cc1)N1CCC(c2ncnc3cc(OCCC4CCCCN4)ccc23)CC1 (stereo not shown)
Reply | rule not met

Ask | Could you please find out whether CC(=O)N1CC[C@@H](Oc2ccc3c(C4CCN(C(=O)Nc5ccc(N6CCCC6)cc5)CC4)ncnc3c2)C1 has pIC50 that meets 5 or exceeds it?
Reply | rule not met

Ask | Say whether CN1CCN(CCOc2ccc3c(C4CCN(C(=O)Nc5ccc(N6CCOCC6)cc5)CC4)ncnc3c2)CC1 shows pIC50 of 5 or more.
Reply | rule not met

Ask | Given the entry CN1CCC(COc2ccc3c(C4CCN(C(=O)Nc5ccc(N6CCCC6)nc5)CC4)ncnc3c2)CC1 , answer whether its pIC50 meets or surpasses 5.
Reply | rule met

Ask | Record COc1cc2ncnc(C3CCN(C(=O)Nc4ccc(OC(C)C)nc4)CC3)c2cc1OC ; criterion: pIC50 no lower than 5. Met?
Reply | rule met

Ask | Dear colleague, could you confirm whether O=C(Nc1ccc(N2CCCC2)nc1)N1CCC(c2ncnc3cc(OCCN4CCOCC4)ccc23)CC1 has pIC50 at or above 5?
Reply | rule met

Ask | Threshold query (pIC50 >= 5) on COc1cc2ncnc(C3CCN(C(=O)Nc4ccc(Cl)cc4)CC3)c2cc1OC
Reply | rule not met

Ask | Kindly determine if pIC50 recorded for COc1cc2ncnc(C3CCN(C(=O)Nc4ccc(C)cc4)CC3)c2cc1OC is above or exactly 5.
Reply | rule met

Ask | Could you verify whether the entry O=C1CCCN1CCOc1ccc2c(C3CCN(C(=O)Nc4ccc(N5CCCC5)cc4)CC3)ncnc2c1 shows pIC50 of no less than 5?
Reply | rule met

Ask | Quick check: does CC(C)Oc1ccc(NC(=O)N2CCC(c3ncnc4ccc(OCCCN5CCCC5=O)cc34)CC2)cc1 have pIC50 greater than or equal to 5?
Reply | rule met

Ask | Tell me whether pIC50 is at least 5 here: CCN(CC)CC#Cc1ccc2ncnc(C3CCN(C(=O)Nc4ccc(OC(C)C)cc4)CC3)c2c1
Reply | rule met

Ask | Could you please find out whether CC(C)Oc1ccc(NC(=O)N2CCC(c3ncnc4ccc(N5CCN(C)CC5)cc34)CC2)cc1 has pIC50 that meets 5 or exceeds it?
Reply | rule met

Ask | Could you verify whether the entry CN1CCN(CCOc2ccc3c(C4CCN(C(=O)Nc5ccc(N6CCCC6)cc5)CC4)ncnc3c2)CC1 shows pIC50 of no less than 5?
Reply | rule met

Ask | Reported pIC50 at or above 5? O=C(Nc1ccc(N2CCCC2)nc1)N1CCC(c2ncnc3cc(OCCN4CCOC4=O)ccc23)CC1
Reply | rule met

Ask | Reported pIC50 reaches at least 5 for CC(C)Oc1ccc(NC(=O)N2CCC(c3ncnc4cc(OCCCN5CCCC5=O)ccc34)CC2)cc1 ?
Reply | rule met

Ask | For this compound, is measured pIC50 5 or higher? CC(C)c1ccc(NC(=O)N2CCC(c3ccnc4ccccc34)CC2)cc1
Reply | rule met

Ask | Decide: is the reported value of pIC50 for COC[C@H]1CCCN1c1ccc2c(C3CCN(C(=O)Nc4ccc(N5CCOCC5)cc4)CC3)ncnc2c1 equal to or greater than 5?
Reply | rule not met

Ask | Confirm if pIC50 reported for the compound O=C(Nc1ccc(N2CCOCC2)cc1)N1CCC(c2ncnc3cc(OCCCN4CCCCC4)ccc23)CC1 is 5 or above.
Reply | rule not met

Ask | Form field: pIC50 at least 5? Entry: CC(C)c1ccc(NC(=O)N2CCC(c3ncnc4ccccc34)CC2)cc1
Reply | rule met

Ask | In plain terms: is recorded pIC50 at least 5 for CCN1CCN(CCCOc2ccc3c(C4CCN(C(=O)Nc5ccc(N6CCOCC6)cc5)CC4)ncnc3c2)CC1 ?
Reply | rule not met

Ask | Confirm if pIC50 reported for the compound CC(C)Oc1ccc(NC(=O)N2CCC(c3ncnc4cc(OCCCN5CCN(C)CC5)ccc34)CC2)cc1 is 5 or above.
Reply | rule met

Ask | Entry CC(C)c1ccc(NC(=O)CN2CCC(c3ncnc4ccccc34)CC2)cc1 : is its pIC50 no less than 5?
Reply | rule met

Ask | Is pIC50 for O=C(Nc1ccc(N2CCOCC2)cc1)N1CCC(c2ncnc3cc(OCCN4CCOCC4)ccc23)CC1 at or above 5?
Reply | rule not met
